All values here come from patent US11912723B2.

system: AGS (KRAS G12D) cells, phospho-ERK; experiment: pERK In Cell Western (ICW) assay (Method B); format: cell-based; settings: Homo sapiens, 3 hours
List of IC50 values.

- COMPOUND: "CN1Cc2c(nc(OC[C@@]34CCCN3C[C@H](F)C4)nc2N2CCC[C@]3(C2)NC(=O)NC3=O)C[C@]12CCc1c(F)cccc12"
  RESULT: "> 10 µM"

Exam item: Give me measured IC50, please, for this compound: "CN1Cc2c(nc(OC[C@@]34CCCN3C[C@H](F)C4)nc2N2C[C@H]3CC[C@@H](C2)N3)C[C@]12CCCc1ccccc12"
Marked response: 1 to 10 µM

Exam item: State its IC50: OC1CCCN(c2nc(OC[C@@]34CCCN3C[C@H](F)C4)nc3c2COC2(CCCc4ccc(Br)cc42)C3)CC1 (stereo partly shown)
Marked response: > 10 µM

Exam item: State, in one line, measured IC50 of N#CNC1CCCN(c2nc(OC[C@@]34CCCN3C[C@H](F)C4)nc3c2COC2(CCc4c(Cl)cccc42)C3)C1 (stereo partly shown)
Marked response: 1 to 10 µM

* * *

Listed here are compounds together with their documented pIC50.
biological target: GST-tagged KRAS G12D (2-169) (Homo sapiens, UniProt P01116, G12D); construct: GST-tagged KRAS^G12D (2-169, Reaction Biology, MSC-11-539); purchased Reaction Biology MSC-11-539 (KRAS G12D); MSC-11-502 (SOS1cat); assay: Nucleotide exchange assay (NEA), HTRF of SOS-mediated GTP-DY-647P1 binding; assay type: biochemical; settings: 5 nM GST-KRAS G12D, 20 nM SOScat, 150 nM GTP; compound 1 h at RT
Sequence (P01116 2-169 isoform P01116-2 G12D): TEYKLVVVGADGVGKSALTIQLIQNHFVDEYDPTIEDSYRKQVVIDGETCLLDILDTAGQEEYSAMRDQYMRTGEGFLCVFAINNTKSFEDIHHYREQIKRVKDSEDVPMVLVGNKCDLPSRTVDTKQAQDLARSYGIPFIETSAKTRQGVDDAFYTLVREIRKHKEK
pIC50: −log10 of the molar value.

Take a look at these entries with their results.
- COMPOUND: "CN1Cc2c(nc(OC[C@@]34CCCN3C[C@H](F)C4)nc2N2CCCn3nc(-c4nc5c(F)cccc5n4C)cc3C2)C[C@]12CCCc1ccccc12"
  TARGET_UNDER_TEST: "GST-tagged KRAS G12D (2-169) (Homo sapiens, UniProt P01116, G12D)"
  pIC50: "7.00 to 8.00"
- COMPOUND: "CN(C)C(=O)c1cc2n(n1)CCCN(c1nc(OC[C@@]34CCCN3C[C@H](F)C4)nc3c1COC1(CCCc4c(Cl)cc(O)cc41)C3)C2 (mixture of isomers)"
  TARGET_UNDER_TEST: "GST-tagged KRAS G12D (2-169) (Homo sapiens, UniProt P01116, G12D)"
  pIC50: "7.00 to 8.00"
- COMPOUND: "CNCc1nn2c(c1Cl)CN(c1nc(OC[C@@]34CCCN3C[C@H](F)C4)nc3c1CO[C@@]1(CCc4c(Cl)cccc41)C3)CCC2"
  TARGET_UNDER_TEST: "GST-tagged KRAS G12D (2-169) (Homo sapiens, UniProt P01116, G12D)"
  pIC50: "7.00 to 8.00"
- COMPOUND: "CN(C)C(=O)c1nn2c(c1Cl)CN(c1nc(OC[C@@]34CCCN3C[C@H](F)C4)nc3c1CN(C)[C@]1(CCCc4ccccc41)C3)CCC2 (single isomer, unassigned) [Compound 64B]"
  TARGET_UNDER_TEST: "GST-tagged KRAS G12D (2-169) (Homo sapiens, UniProt P01116, G12D)"
  pIC50: "6.00 to 7.00"
- COMPOUND: "OC1CCCN(c2nc(OC[C@@]34CCCN3C[C@H](F)C4)nc3c2COC2(CCCc4ccc(Br)cc42)C3)CC1 (stereo partly drawn)"
  TARGET_UNDER_TEST: "GST-tagged KRAS G12D (2-169) (Homo sapiens, UniProt P01116, G12D)"
  pIC50: "4.70 to 6.00"

Exam item: Find pIC50 for "CN(C)C(=O)c1nn2c(c1Cl)CN(c1nc(OC[C@@]34CCCN3C[C@H](F)C4)nc3c1CN(C)[C@@]1(CCc4cccc(O)c41)C3)CCC2" on GST-tagged KRAS G12D (2-169) (Homo sapiens, UniProt P01116, G12D) and write it down.
Marked response: > 8.00

Exam item: Specify the recorded pIC50 for "CN(C)C(=O)c1nn2c(c1Cl)CN(c1nc(OC[C@@]34CCCN3C[C@H](F)C4)nc3c1CN(C)[C@@]1(CCc4cccc(F)c41)C3)CCC2" , system: GST-tagged KRAS G12D (2-169) (Homo sapiens, UniProt P01116, G12D).
Marked response: > 8.00

Exam item: Identify measured pIC50 obtained with GST-tagged KRAS G12D (2-169) (Homo sapiens, UniProt P01116, G12D) for C[C@@]1(NC#N)CCCN(c2nc(OC[C@@]34CCCN3C[C@H](F)C4)nc3c2COC2(CCc4c(Cl)cccc42)C3)C1 (stereo partly drawn) [Compound 46A] .
Marked response: 6.00 to 7.00

Exam item: Give the observed pIC50 of C=C1CN2CCCC2(COc2nc3c(c(N4CCCn5nc(C(=O)N(C)C)c(Cl)c5C4)n2)CO[C@@]2(CCc4c(Cl)cccc42)C3)C1 (mixture of isomers) for GST-tagged KRAS G12D (2-169) (Homo sapiens, UniProt P01116, G12D).
Marked response: > 8.00
